compounds and their reported Ki
test name: Displacement of [3H]DTG from sigma 2 receptor in Wistar Hannover rat liver membrane in presence of (+)-pentazocine
Format: cell membranes
Just the number in nM, nothing appended.

1) COc1cccc2c1CCCC2N(C)CCN1CCN(C2CCCCC2)CC1 (racemic)    15.3
2) COc1cccc2c1CCCC2NCCN1CCN(C2CCCCC2)CC1 (racemic)    8.49

Shifting focus to the compound that follows.
Prompt line: Return Ki for the following compound: COc1cccc2c1CCC[C@@H]2NCCN1CCN(C2CCCCC2)CC1
Response line: 8.52
